- assay-target: Adrenergic receptor alpha-1 (Rattus norvegicus, UniProt P15823+P23944+P43140)
assay-endpoint: Ki (µM)

Illustrative cases are given below, each with its answer.
CC(C)NCC1OCCc2c1ccc(O)c2O (centres undefined) :: 21.5
CC(C)NCC1OCCc2cc(O)c(O)cc21 (centres undefined) :: 26

A: NCC1OCCc2c1ccc(O)c2O (centres undefined)
B: NCC1OCCc2cc(O)c(O)cc21 (centres undefined)
## Task I would appreciate it if you could say which entry, A or B , has the lower Ki value. Please respond with the label that marks your chosen entry.
## Result A
(A: 42.2 µM, B: 60.3 µM)

###

- assay-target: Adrenergic receptor alpha-2 (UniProt P08913+P18825+P18089)
- Sequence (P08913 whole entry, looked up): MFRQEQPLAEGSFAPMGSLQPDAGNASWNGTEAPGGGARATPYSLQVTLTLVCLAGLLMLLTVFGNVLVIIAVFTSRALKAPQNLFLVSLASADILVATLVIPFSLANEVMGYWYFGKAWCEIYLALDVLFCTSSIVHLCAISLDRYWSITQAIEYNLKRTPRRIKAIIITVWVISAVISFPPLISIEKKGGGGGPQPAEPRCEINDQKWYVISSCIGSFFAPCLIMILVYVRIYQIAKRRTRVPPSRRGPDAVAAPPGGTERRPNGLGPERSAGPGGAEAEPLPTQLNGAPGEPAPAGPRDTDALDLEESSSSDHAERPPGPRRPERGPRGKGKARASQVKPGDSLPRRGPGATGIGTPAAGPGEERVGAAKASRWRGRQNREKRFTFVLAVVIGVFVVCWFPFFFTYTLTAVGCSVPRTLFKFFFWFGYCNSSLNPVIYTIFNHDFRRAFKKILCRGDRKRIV
- Sequence (P18089 whole entry, looked up): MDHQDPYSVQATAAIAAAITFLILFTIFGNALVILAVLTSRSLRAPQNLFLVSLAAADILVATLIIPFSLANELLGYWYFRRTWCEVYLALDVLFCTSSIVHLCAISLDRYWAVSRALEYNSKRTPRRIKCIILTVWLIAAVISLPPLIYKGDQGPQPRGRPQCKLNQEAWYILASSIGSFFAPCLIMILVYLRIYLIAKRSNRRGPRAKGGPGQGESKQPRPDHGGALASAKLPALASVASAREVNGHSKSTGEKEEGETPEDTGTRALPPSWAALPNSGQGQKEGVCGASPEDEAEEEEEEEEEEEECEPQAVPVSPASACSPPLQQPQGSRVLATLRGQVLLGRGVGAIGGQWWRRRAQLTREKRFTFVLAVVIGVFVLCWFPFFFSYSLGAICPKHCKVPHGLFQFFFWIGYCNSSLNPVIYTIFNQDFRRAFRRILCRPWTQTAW
- Sequence (P18825 whole entry, looked up): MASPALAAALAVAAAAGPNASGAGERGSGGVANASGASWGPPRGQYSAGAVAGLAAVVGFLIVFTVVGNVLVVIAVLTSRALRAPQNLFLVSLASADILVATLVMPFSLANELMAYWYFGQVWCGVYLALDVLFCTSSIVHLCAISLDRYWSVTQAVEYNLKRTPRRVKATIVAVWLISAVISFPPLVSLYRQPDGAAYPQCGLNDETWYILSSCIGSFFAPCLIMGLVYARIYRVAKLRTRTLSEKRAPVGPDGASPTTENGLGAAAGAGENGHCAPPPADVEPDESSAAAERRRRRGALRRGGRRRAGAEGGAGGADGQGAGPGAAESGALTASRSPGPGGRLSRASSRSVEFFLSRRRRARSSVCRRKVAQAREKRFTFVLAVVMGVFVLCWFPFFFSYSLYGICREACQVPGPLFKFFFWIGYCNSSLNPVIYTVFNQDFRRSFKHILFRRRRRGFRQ
- measurement-setup: Cavia porcellus; Ileum
- Description: Intrinsic activity against alpha-2 receptor in isolated guinea pig ileum
assay-endpoint: IA

NC[C@H](O)c1ccc(O)c(O)c1 :: 1
CC(C)NCC1OCCc2cc(O)c(O)cc21 (stereo not given) :: 0.72
NCC1OCCc2c1ccc(O)c2O (stereo not given) :: 1
NCC1OCCc2cc(O)c(O)cc21 (stereo not given) :: 0.73
CC(C)NCC1OCCc2c1ccc(O)c2O (stereo not given) :: 1

###

- assay-target: Adrenergic receptor alpha-2 (UniProt P08913+P18825+P18089)
- measurement-setup: Cavia porcellus; Ileum
- Description: Tested for alpha adrenergic activity against alpha-2 receptor from isolated guinea pig ileum
assay-endpoint: pD2

Illustrative cases are given below, each with its answer.
NCC1OCCc2cc(O)c(O)cc21 (centres undefined) :: 5.45
CC(C)NCC1OCCc2c1ccc(O)c2O (centres undefined) :: 5.26

A: NC[C@H](O)c1ccc(O)c(O)c1
B: CC(C)NCC1OCCc2cc(O)c(O)cc21 (centres undefined)
## Task Would you let me know which has the greater pD2 value, A or B ? Please respond with the label that marks your chosen entry.
## Result A
